- Tested on: UACC-257 melanoma
- test_name: NCI-60 one-dose screen, 48 h (100 = growth as untreated, 0 = no growth, -100 = all killed)
- reported_conditions: 10 µM unless noted
Compounds without any hit were thinned out: in the full panel of roughly 83,000, 20% have a hit. Activity calls are given as the source filed them. How the source made its calls: active means growth percent below 10; inactive means the rest.
Consider the following molecules and their measured growth readings.

Some entries whose results are on file:
molecule=CC(C)CCSc1nc(-c2ccc(F)cc2)c(C#N)c(N2CCCCC2)n1 property=growth assay_result="84.7% (inactive)"
molecule=CCCCCCCCN(CCCCCCCC)C(=O)CCl property=growth assay_result="112% (inactive)"
molecule="COc1ccc(C2=NNC(c3ccc(Oc4nc5c(c(=O)n(C)c(=O)n5C)n4C)c(OC)c3)C2)cc1 (centres undefined)" property=growth assay_result="97.8% (inactive)"

Quick check: growth of CC1(C)CN(CCNc2nccc(-c3c(-c4cccc(O)c4)nc4sccn34)n2)S(=O)(=O)N1 ?
46.8% (inactive)

What do we get for c1cc2c(cc1-c1cnc3nonc3n1)OCO2 ?
93% (inactive)

What do we get for CCN(CC)CCCC(C)Nc1c(-c2ccccc2)cnc2cc(Cl)ccc12 (centres undefined) ?
-26.6% (active)

What do we get for CCN(CC)CCCC(C)Nc1ccnc2ccc(Oc3ccccc3)cc12 (centres undefined) ?
-54.1% (active)

What do we get for COc1ccccc1CNCCCN1C(=O)c2ccc3c4c(ccc(c24)C1=O)C(=O)N(CCCCNCCCN)C3=O ?
-95% (active)

What do we get for CNC1=C([N+](=O)[O-])C(c2ccccc2O)C(C#N)=C(c2cccs2)O1 (centres undefined) ?
78.3% (inactive)

What do we get for CCN1C(=O)N(CC)C2C1NC(=O)N2/N=C/C=C/c1ccccc1 (centres undefined) ?
35.8% (inactive)

What do we get for Cc1csc(N/N=C/c2ccncc2)n1 ?
78.1% (inactive)

What do we get for Nc1c(N)c2ccccc2c2ccccc12 ?
106% (inactive)

What do we get for C=CCOc1ccc2c(C)cc(=O)oc2c1 ?
105% (inactive)

What do we get for OC(COCc1ccccc1)COCc1ccccc1 ?
97.9% (inactive)

What do we get for COc1ccc2nc3ccccc3c(NCc3ccc(C)cc3)c2c1 ?
-7.97% (active)

What do we get for COc1cc([N+](=O)[O-])cc(OC)c1OC ?
114% (inactive)

What do we get for Cc1c2c(cc3c1[nH]c1ccccc13)C=NCC2 ?
106% (inactive)
